# CSNK1D (Homo sapiens (Human)): IC50 values follow
# Sequence (P48730 whole entry): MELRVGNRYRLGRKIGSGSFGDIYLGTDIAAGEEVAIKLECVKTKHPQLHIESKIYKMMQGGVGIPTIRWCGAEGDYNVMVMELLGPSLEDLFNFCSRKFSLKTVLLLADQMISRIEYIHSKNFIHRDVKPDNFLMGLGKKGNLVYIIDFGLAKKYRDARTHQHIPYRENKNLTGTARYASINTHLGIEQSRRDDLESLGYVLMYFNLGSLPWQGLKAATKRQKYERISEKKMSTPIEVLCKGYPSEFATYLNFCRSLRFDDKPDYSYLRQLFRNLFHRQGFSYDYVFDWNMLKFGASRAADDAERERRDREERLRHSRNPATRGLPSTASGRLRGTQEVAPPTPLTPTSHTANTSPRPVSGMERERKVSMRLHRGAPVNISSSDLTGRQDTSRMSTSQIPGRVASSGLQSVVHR
Please state the number and follow it with the unit.

Some entries whose results are on file:
[
  {
    "COMPOUND": "O=C(Cc1ccc(Cl)cc1)Nc1cc(-c2[nH]c3cccnc3c2-c2ccccn2)ccn1",
    "IC50": "3.33 nM"
  },
  {
    "COMPOUND": "O=C(Cc1ccc(F)cc1)Nc1cc(-c2[nH]c3cccnc3c2-c2ncccn2)ccn1 [Example 16]",
    "IC50": "9.02 nM"
  },
  {
    "COMPOUND": "COCCc1ccnc2c(-c3ccccn3)c(-c3ccnc(NC(=O)Cc4ccc(F)cc4)c3)[nH]c12",
    "IC50": "14.8 nM"
  },
  {
    "COMPOUND": "CC(C(=O)Nc1cc(-c2[nH]c3ccc(F)nc3c2-c2ccccn2)ccn1)c1ccc(F)cc1 (single isomer, unassigned; (-)) [Example 2]",
    "IC50": "32.2 nM"
  },
  {
    "COMPOUND": "O=C(Cc1ccc(F)cc1)Nc1cc(-c2[nH]c3ccc(Cl)nc3c2-c2ccccn2)ccn1",
    "IC50": "3.18 nM"
  }
]

**Q:** Quick one: IC50 for CCc1ccnc2c(-c3ccccn3)c(-c3ccnc(NC(=O)Cc4ccc(F)cc4)c3)[nH]c12 ?
**A:** 3.84 nM

**Q:** Quick one: IC50 for CC(C(=O)Nc1cc(-c2[nH]c3cccnc3c2-c2ccccn2)ccn1)c1ccc(F)cc1 (single isomer, unassigned; (+)) [Example 7] ?
**A:** 2.1 nM

----------
- TARGET UNDER TEST: CSNK1A1 (Homo sapiens (Human))
- ASSAY: CSNK1A1 Assay 2 (ADP-Glo, 1 μM ATP, substrate biotin-Ahx-KRRRAL-pS-VASLPGL)
- Type: biochemical
- CONDITION PARAMETERS: median, read-out: CSNK1A1 Assay 2 IC50 [mol/l] (median)
Item-by-item account of IC50
Express the result in nM but write the number alone.

[
  {
    "COMPOUND": "O=C(Cc1ccc(F)cc1)Nc1cc(-c2[nH]c3cccnc3c2-c2ccc(Cl)s2)ccn1 [Example 17]",
    "SCALE UNIT": "nM",
    "VALUE": 1.88
  }
]

**Q:** Quick one: IC50 for C=Cc1ccnc2c(-c3ccccn3)c(-c3ccnc(NC(=O)Cc4ccc(F)cc4)c3)[nH]c12 [Example 33] ?
**A:** 3.97

**Q:** Quick one: IC50 for O=C(Cc1ccc(F)cc1)Nc1cc(-c2[nH]c3ccc(F)nc3c2-c2ccc(F)cn2)ccn1 [Example 50] ?
**A:** 1.42

**Q:** Quick one: IC50 for Cc1cc(CC(=O)Nc2cc(-c3[nH]c4cccnc4c3-c3ccccn3)ccn2)ccc1F [Example 41] ?
**A:** 4.03

----------
- TARGET UNDER TEST: UniProt:P48729
- ASSAY: CSNK1A1 Assay 2 (ADP-Glo, 1 μM ATP, substrate biotin-Ahx-KRRRAL-pS-VASLPGL)
- Assay type: biochemical
- CONDITION PARAMETERS: median, read-out: CSNK1A1 Assay 2 IC50 [mol/l] (median)
Item-by-item account of pIC50
Please treat pIC50 as minus the base-10 logarithm of the molar concentration.

Some entries whose results are on file:
[
  {
    "COMPOUND": "CC(C(=O)Nc1cc(-c2[nH]c3ccc(F)nc3c2-c2ccccn2)ccn1)c1ccc(F)cc1 (single isomer, unassigned; (-)) [Example 2]",
    "pIC50": 7.96
  },
  {
    "COMPOUND": "CN1CCN(c2ccnc3c(-c4ccccn4)c(-c4ccnc(NC(=O)Cc5ccc(F)cc5)c4)[nH]c23)CC1",
    "pIC50": 8.48
  },
  {
    "COMPOUND": "O=C(Cc1ccc(F)cc1)Nc1cc(-c2[nH]c3cccnc3c2-c2ccccn2)ccn1",
    "pIC50": 8.97
  }
]

Consider the additional compound presented here.
**Q:** Quick one: pIC50 for CC(C(=O)Nc1cc(-c2[nH]c3cccnc3c2-c2ccccc2)ccn1)c1ccc(F)cc1 (single isomer, unassigned; (-)) [Example 12] ?
**A:** 7.43

----------
Item-by-item account of pIC50
- TARGET UNDER TEST: CSNK1A1 (Homo sapiens (Human))
- ASSAY: CSNK1A1 High ATP Assay (ADP-Glo, 1 mM ATP)
- Assay type: biochemical
- CONDITION PARAMETERS: median, read-out: CSNK1A1 high ATP assay IC50 [mol/l] (median)
Please treat pIC50 as minus the base-10 logarithm of the molar concentration.

[
  {
    "COMPOUND": "O=C(Cc1ccc(F)cc1)Nc1cc(-c2[nH]c3ccnnc3c2-c2ccccn2)ccn1",
    "VALUE": 7.60
  }
]

**Q:** Quick one: pIC50 for CC(C(=O)Nc1cc(-c2[nH]c3ccc(F)nc3c2-c2ccc(F)cn2)ccn1)c1ccc(F)cc1 (single isomer, unassigned; (-)) [Example 49] ?
**A:** 5.59

**Q:** Quick one: pIC50 for CC(C)C(C(=O)Nc1cc(-c2[nH]c3ccc(F)nc3c2-c2ccccn2)ccn1)c1ccc(F)cc1 (single isomer, unassigned; (-)) [Example 25] ?
**A:** 5.63

----------
# CSNK1D (Homo sapiens (Human)): IC50 values follow
Express the result in nM but write the number alone.

Some entries whose results are on file:
[
  {
    "MOLECULE": "C=Cc1ccnc2c(-c3ccccn3)c(-c3ccnc(NC(=O)Cc4ccc(F)cc4)c3)[nH]c12",
    "IC50, nM": 9.16
  },
  {
    "MOLECULE": "O=C(Cc1ccc(F)cc1)Nc1cc(-c2[nH]c3ccnnc3c2-c2ccccn2)ccn1",
    "IC50, nM": 3.96
  },
  {
    "MOLECULE": "COCC(C(=O)Nc1cc(-c2[nH]c3cccnc3c2-c2ccccn2)ccn1)c1ccc(F)cc1 (racemic)",
    "IC50, nM": 6.46
  }
]

**Q:** Tell me reported IC50 for Cc1cc2[nH]c(-c3ccnc(NC(=O)Cc4ccc(F)cc4)c3)c(-c3ccccn3)c2nc1F , tested with CSNK1D (Homo sapiens (Human)).
**A:** 5.11

**Q:** Tell me reported IC50 for CC(C)C(C(=O)Nc1cc(-c2[nH]c3ccc(F)nc3c2-c2ccccn2)ccn1)c1ccc(F)cc1 (single isomer, unassigned; (+)) [Example 26] , tested with CSNK1D (Homo sapiens (Human)).
**A:** 7.62

**Q:** Tell me reported IC50 for COCC(C(=O)Nc1cc(-c2[nH]c3cc(F)cnc3c2-c2ccccn2)ccn1)c1ccc(F)cc1 (racemic) , tested with CSNK1D (Homo sapiens (Human)).
**A:** 12

**Q:** Tell me reported IC50 for O=C(Cc1ccc(F)cc1)Nc1cc(-c2[nH]c3cccnc3c2-c2ccc(Cl)s2)ccn1 , tested with CSNK1D (Homo sapiens (Human)).
**A:** 3.15

**Q:** Tell me reported IC50 for Cc1cc(CC(=O)Nc2cc(-c3[nH]c4cccnc4c3-c3ccccn3)ccn2)ccc1F , tested with CSNK1D (Homo sapiens (Human)).
**A:** 12.1

----------
- TARGET UNDER TEST: UniProtKB P48729
- ASSAY: CSNK1A1 High ATP Assay (ADP-Glo, 1 mM ATP)
- Format: biochemical
- CONDITION PARAMETERS: median, read-out: CSNK1A1 high ATP assay IC50 [mol/l] (median)
PROPERTY: pIC50
Please treat pIC50 as minus the base-10 logarithm of the molar concentration.

**Q:** Tell me reported pIC50 for CCc1ccnc2c(-c3ccccn3)c(-c3ccnc(NC(=O)Cc4ccc(F)cc4)c3)[nH]c12 , tested with UniProtKB P48729.
**A:** 7.87

**Q:** Tell me reported pIC50 for C=Cc1ccnc2c(-c3ccccn3)c(-c3ccnc(NC(=O)Cc4ccc(F)cc4)c3)[nH]c12 , tested with UniProtKB P48729.
**A:** 7.54

**Q:** Tell me reported pIC50 for Cc1cc2[nH]c(-c3ccnc(NC(=O)C(C)c4ccc(F)cc4)c3)c(-c3ccccn3)c2nc1F (single isomer, unassigned; (-)) [Example 30] , tested with UniProtKB P48729.
**A:** 7.63

**Q:** Tell me reported pIC50 for O=C(Cc1ccc(F)cc1)Nc1cc(-c2[nH]c3ccnnc3c2-c2ccccc2)ccn1 , tested with UniProtKB P48729.
**A:** 7.11

**Q:** Tell me reported pIC50 for O=C(Cc1ccc(F)cc1)Nc1cc(-c2[nH]c3cccnc3c2-c2ncccn2)ccn1 [Example 16] , tested with UniProtKB P48729.
**A:** 7.01

----------
- TARGET UNDER TEST: CSNK1A1 (Homo sapiens (Human), UniProt P48729)
- Sequence (P48729 whole entry): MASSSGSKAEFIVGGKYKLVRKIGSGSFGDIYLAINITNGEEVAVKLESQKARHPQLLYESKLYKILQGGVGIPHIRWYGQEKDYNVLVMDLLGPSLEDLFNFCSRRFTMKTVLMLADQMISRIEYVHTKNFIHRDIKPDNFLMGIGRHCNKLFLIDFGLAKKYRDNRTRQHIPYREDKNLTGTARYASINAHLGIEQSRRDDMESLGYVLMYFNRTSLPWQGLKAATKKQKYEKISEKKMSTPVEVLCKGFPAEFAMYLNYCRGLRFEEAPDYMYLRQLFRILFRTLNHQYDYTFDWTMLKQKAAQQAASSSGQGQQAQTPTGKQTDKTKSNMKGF
- ASSAY: CSNK1A1 Assay 2 (ADP-Glo, 1 μM ATP, substrate biotin-Ahx-KRRRAL-pS-VASLPGL)
- Type: biochemical
- CONDITION PARAMETERS: median, read-out: CSNK1A1 Assay 2 IC50 [mol/l] (median)
Item-by-item account of IC50
Please state the number and follow it with the unit.

**Q:** Quick one: IC50 for COc1ccc2[nH]c(-c3ccnc(NC(=O)Cc4ccc(F)cc4)c3)c(-c3ccccn3)c2n1 [Example 32] ?
**A:** 2.5 nM

**Q:** Quick one: IC50 for O=C(Cc1ccc(F)cc1)Nc1cc(-c2[nH]c3nccnc3c2-c2ccccc2)ccn1 [Example 18] ?
**A:** 3.33 nM

**Q:** Quick one: IC50 for O=C(Cc1ccc(F)cc1)Nc1cc(-c2[nH]c3cc(F)cnc3c2-c2ccccn2)ccn1 [Example 9] ?
**A:** 1.68 nM

**Q:** Quick one: IC50 for CC(C(=O)Nc1cc(-c2[nH]c3cccnc3c2-c2ccccn2)ccn1)c1ccc(F)cc1 (single isomer, unassigned; (+)) [Example 7] ?
**A:** 0.949 nM
